# Run description: Inhibition of beta-lactamase TEM- 1 assessed as nitrocefin hydrolysis after 5 mins enzyme-compound preincubation
Would you mind telling me the reported pIC50 of each entry?
Quick note: pIC50 means taking -log10 of the concentration in moles per liter.

[ask] What does the data say about its pIC50? Entry: O=C(O)[C@H]1/C(=C/CO)O[C@@H]2CC(=O)N21 [CLAVULANIC ACID]
[reply] 7.24

[ask] # lookup: pIC50 of NC(=O)[C@@H]1CC[C@@H]2CN1C(=O)N2OS(=O)(=O)O (relative stereo) [AVIBACTAM]
[reply] 8.10

[ask] For the compound shown here, C[C@]1(Cn2ccnn2)[C@H](C(=O)O)N2C(=O)C[C@H]2S1(=O)=O [TAZOBACTAM] , give the reported pIC50.
[reply] 7.49

[ask] Query (compound): CC1(C)[C@H](C(=O)O)N2C(=O)C[C@H]2S1(=O)=O [SULBACTAM] ; field requested: pIC50
[reply] 5.81
